Provide the reported Population Tubulin-Different-Phenotype (%) of each item.
System: U2OS
assay.method.text: Multiplex assay against U2OS
Format: toxicity, cell-based
settings: human, 12 h, 1 µM, compound concentration 1 uM, replicate 1
The figure you give is taken to be in %; do not add the unit.

# input compound: CCCN1CCC[C@@H]2Cc3n[nH]cc3C[C@H]21.Cl [QUINPIROLE HYDROCHLORIDE] ; wanted: its Population Tubulin-Different-Phenotype (%)
3

C[C@H](NC(=O)c1c(C(F)F)nn(C)c1Oc1cccc(C(F)(F)F)c1)c1ccc(C(=O)O)cc1 [PALUPIPRANT] ?
1

COc1ccc2c(c1)C(C(=O)N(Cc1ccc(N(C)C)cc1)c1ccc(C(C)C)cc1)CCC2.Cl (centres undefined) ?
4

CC(=O)NCCc1c(Cc2ccccc2)[nH]c2ccccc12 [LUZINDOLE] ?
1

`O=C(NCCO)c1cccc(-c2cc(Nc3ccc(OC(F)(F)F)cc3)ncn2)c1` ?
1

c1cc(OCCCN2CCCCC2)ccc1CN1CCCCC1 [JNJ-5207852] ?
3

`CCCn1c(=O)c2[nH]c(C3CCCC3)nc2n(CCC)c1=O` ?
1

CC(C)(C)c1ccc(S(=O)(=O)Nc2ccc(Cl)cc2C(=O)c2cc[n+]([O-])cc2)cc1 [VERCIRNON] ?
4

CCNC1(C(N)=O)CCN(c2ncnc3c2nc(-c2ccccc2Cl)n3-c2ccc(Cl)cc2)CC1 [OTENABANT] ?
4

----------
Provide the reported Population Healthy Nuclei (%) of each item.
Tested on: Fibroblast
assay.method.text: Multiplex assay against human fibroblast
Assay type: toxicity, cell-based
settings: 24 h, 1 µM, compound concentration 1 uM, replicate 2
The figure you give is taken to be in %; do not add the unit.

# input compound: `CN1CCN(c2nc3cc(C(F)(F)F)ccc3n3cccc23)CC1.O=C(O)/C=C\C(=O)O.O=C(O)/C=C\C(=O)O` ; wanted: its Population Healthy Nuclei (%)
42

CC(=O)NCCc1c(Cc2ccccc2)[nH]c2ccccc12 [LUZINDOLE] ?
47

`CN(C)c1ccnc2sc3c(=O)n(N4CCCCCC4)cnc3c12` ?
55

Cc1ccc(/C(=C\CN2CCCC2)c2ccccn2)cc1 [TRIPROLIDINE] ?
43

CC1(COc2ccc3c(c2)ncn3-c2ccc3cccc(N4CCC(N)CC4)c3n2)COC1 [CRENOLANIB] ?
48

`CN(C)CCCc1cc(C(=O)Nc2ccc(-c3ccncc3)cc2)ccc1O.Cl.Cl` ?
50

O=S(=O)(c1ccccc1)c1cnc2c(N3CCNCC3)cccc2c1 [INTEPIRDINE] ?
44

`CCOc1c2c(c(OCC)c3ncccc13)CN(c1ccc(CS(=O)(=O)NC(=O)Cc3ccccc3OC)cc1C)C2=O` ?
32

Cl.Clc1ccc2nsnc2c1NC1=NCCN1 [TIZANIDINE HYDROCHLORIDE] ?
49

----------
Test system: U2OS
assay.method.text: Multiplex assay against U2OS
Assay type: toxicity, cell-based
settings: human, 48 h, 1 µM, compound concentration 1 uM, replicate 2
Provide the reported Population Fragmented Nuclei (%) of each item.
A complete answer gives the number and then names the unit.

# input molecule: `CCCC(CCC)C(=O)O` ; wanted: its Population Fragmented Nuclei (%)
16%

`CC(C)(C)c1ccc(S(=O)(=O)Nc2ccc(Cl)cc2C(=O)c2cc[n+]([O-])cc2)cc1` ?
15%

Cc1ccccc1C(=O)Nc1ccc(C(=O)N2CCCC(N(C)C)c3ccccc32)cc1.Cl (centres undefined) ?
15%

`CCNC1(C(N)=O)CCN(c2ncnc3c2nc(-c2ccccc2Cl)n3-c2ccc(Cl)cc2)CC1` ?
16%

Cl.Clc1ccc2nsnc2c1NC1=NCCN1 [TIZANIDINE HYDROCHLORIDE] ?
17%

`CC(=O)NCCc1c(Cc2ccccc2)[nH]c2ccccc12` ?
11%

`CC[C@H]1OC(=O)[C@H](C)[C@@H](O[C@H]2C[C@@](C)(OC)[C@@H](O)[C@H](C)O2)[C@H](C)[C@@H](O[C@@H]2O[C@H](C)C[C@H](N(C)C)[C@H]2O)[C@@]2(C)CC(C)=C(O2)[C@H](C)[C@@H](O)[C@]1(C)O` ?
32%

`CC1(COc2ccc3c(c2)ncn3-c2ccc3cccc(N4CCC(N)CC4)c3n2)COC1` ?
37%

`COc1c(C)cc(NC(=O)c2nn(Cc3ccc(F)cc3)c3c2CN(C(=O)c2ccc[nH]2)C[C@]3(C)C(N)=O)cc1C` ?
15%

----------
Provide the reported Population Apoptotic (%) of each item.
System: Fibroblast
assay.method.text: Multiplex assay against human fibroblast
Type: toxicity, cell-based
settings: 24 h, 1 µM, compound concentration 1 uM, replicate 2
A complete answer gives the number and then names the unit.

Look up Population Apoptotic (%) with Fibroblast for this compound: C[C@H](NC(=O)c1c(C(F)F)nn(C)c1Oc1cccc(C(F)(F)F)c1)c1ccc(C(=O)O)cc1 [PALUPIPRANT]
42%

Cc1ccccc1C(=O)Nc1ccc(C(=O)N2CCCC(N(C)C)c3ccccc32)cc1.Cl (stereo not drawn) ?
43%

`CCCn1c(=O)c2[nH]c(C3CCCC3)nc2n(CCC)c1=O` ?
75%

----------
Tested on: Fibroblast
assay.method.text: Multiplex assay against human fibroblast
Assay type: toxicity, cell-based
settings: 24 h, 10 µM, compound concentration 10 uM, replicate 2
Provide the reported Population Pyknosed Nuclei (%) of each item.
The figure you give is taken to be in %; do not add the unit.

# input compound: CC(C)(C)c1ccc(S(=O)(=O)Nc2ccc(Cl)cc2C(=O)c2cc[n+]([O-])cc2)cc1 [VERCIRNON] ; wanted: its Population Pyknosed Nuclei (%)
24

`O=C1COc2nccc(-c3ccccc3F)c2CN1Cc1cc(C(F)(F)F)cc(C(F)(F)F)c1` ?
16

`COc1c(C)cc(NC(=O)c2nn(Cc3ccc(F)cc3)c3c2CN(C(=O)c2ccc[nH]2)C[C@]3(C)C(N)=O)cc1C` ?
21

Cc1ccc(C(C)(O)c2nc3ccccc3s2)c(C)c1 (stereo not drawn) ?
25

O=C(NCC(=O)N1CC[C@H](N[C@H]2CC[C@@](O)(c3ccc(-c4ncccn4)cn3)CC2)C1)c1cccc(C(F)(F)F)c1 [PF-4136309] ?
22

C[C@@H]1C[C@H]2[C@@H]3CCC4=CC(=O)C=C[C@]4(C)[C@@]3(F)[C@@H](O)C[C@]2(C)[C@@]1(O)C(=O)CO [DEXAMETHASONE] ?
24

CCNC1(C(N)=O)CCN(c2ncnc3c2nc(-c2ccccc2Cl)n3-c2ccc(Cl)cc2)CC1 [OTENABANT] ?
13

CNC[C@H](O)c1ccc(O)c(O)c1 [EPINEPHRINE] ?
15

----------
System: HEK-293T
assay.method.text: Multiplex assay against HEK293T
Assay type: toxicity, cell-based
settings: human, 24 h, 10 µM, compound concentration 10 uM, replicate 2
assay.readout: Population Fragmented Nuclei (%)
The figure you give is taken to be in %; do not add the unit.

Look up Population Fragmented Nuclei (%) with HEK-293T for this compound: CN1CCN2c3ncccc3Cc3ccccc3C2C1 (stereo not given)
5

`O=C(O)c1cc2ccccc2c(Cc2c(O)c(C(=O)O)cc3ccccc23)c1O` ?
5

`Cc1ccc(/C(=C\CN2CCCC2)c2ccccn2)cc1` ?
9

`CCNC1(C(N)=O)CCN(c2ncnc3c2nc(-c2ccccc2Cl)n3-c2ccc(Cl)cc2)CC1` ?
6

`Cc1ccc(-c2ccc(F)cc2COc2ccc(CCC(=O)O)cc2)cc1` ?
6

----------
Test system: Fibroblast
assay.method.text: Multiplex assay against human fibroblast
Type: toxicity, cell-based
settings: 24 h, 1 µM, compound concentration 1 uM, replicate 1
Label 1 when Population Mitotic Cells (%) is at or above 40%; anything below gets 0.

Reported Population Mitotic Cells (%) at or above 40%? `O=C(NCCO)c1cccc(-c2cc(Nc3ccc(OC(F)(F)F)cc3)ncn2)c1`
1

CNC[C@H](O)c1ccc(O)c(O)c1 [EPINEPHRINE] ?
1

Cl.Clc1ccc2nsnc2c1NC1=NCCN1 [TIZANIDINE HYDROCHLORIDE] ?
1

`COc1cc(C(=O)N(CCCc2ccccc2)Cc2ccc(CC(=O)O)cc2)cc(OC)c1C` ?
0

`N#Cc1c(N)nc(SCc2csc(-c3ccc(Cl)cc3)n2)c(C#N)c1-c1ccc(OCCO)cc1` ?
0

Cc1ccccc1C(=O)Nc1ccc(C(=O)N2CCCC(N(C)C)c3ccccc32)cc1.Cl (stereo not drawn) ?
1

COc1ccc2c(c1)C(C(=O)N(Cc1ccc(N(C)C)cc1)c1ccc(C(C)C)cc1)CCC2.Cl (stereo not drawn) ?
1

`CC[C@H]1OC(=O)[C@H](C)[C@@H](O[C@H]2C[C@@](C)(OC)[C@@H](O)[C@H](C)O2)[C@H](C)[C@@H](O[C@@H]2O[C@H](C)C[C@H](N(C)C)[C@H]2O)[C@@]2(C)CC(C)=C(O2)[C@H](C)[C@@H](O)[C@]1(C)O` ?
1

`COc1cc(NC(=O)CCN2CCC(OC(=O)Nc3ccccc3-c3ccccc3)CC2)c(Cl)cc1CNC[C@H](O)c1ccc(O)c2[nH]c(=O)ccc12` ?
1

`O=C(O)Cc1ccccc1Nc1c(Cl)cccc1Cl` ?
1

`CC(C)(C)c1ccc(S(=O)(=O)Nc2ccc(Cl)cc2C(=O)c2cc[n+]([O-])cc2)cc1` ?
1

`Cc1ccc(F)cc1C(=O)Nc1ccc(C(=O)N2Cc3cccn3Cc3ccccc32)c(Cl)c1` ?
1

`CC(=O)NCCc1c(Cc2ccccc2)[nH]c2ccccc12` ?
1

`CCNC1(C(N)=O)CCN(c2ncnc3c2nc(-c2ccccc2Cl)n3-c2ccc(Cl)cc2)CC1` ?
1

`COc1c(C)cc(NC(=O)c2nn(Cc3ccc(F)cc3)c3c2CN(C(=O)c2ccc[nH]2)C[C@]3(C)C(N)=O)cc1C` ?
0

CSc1ccccc1N1CCN(CCCCCC(=O)NC2CCCc3ccccc32)CC1.Cl (stereo not drawn) ?
1

`Cc1nc2ccc(Oc3ccc(F)cc3)cc2c(=O)n1C[C@H]1CCCN(C(C)C)C1.Cl` ?
0

`Cc1ccc(/C(=C\CN2CCCC2)c2ccccn2)cc1` ?
1

`C[C@@H]1C[C@H]2[C@@H]3CCC4=CC(=O)C=C[C@]4(C)[C@@]3(F)[C@@H](O)C[C@]2(C)[C@@]1(O)C(=O)CO` ?
1

`O=C(O)c1cc2ccccc2c(Cc2c(O)c(C(=O)O)cc3ccccc23)c1O` ?
1

Cc1ccc(C(C)(O)c2nc3ccccc3s2)c(C)c1 (stereo not drawn) ?
1

`O=C(NCC(=O)N1CC[C@H](N[C@H]2CC[C@@](O)(c3ccc(-c4ncccn4)cn3)CC2)C1)c1cccc(C(F)(F)F)c1` ?
0

`Oc1c(CN2CCN(c3ccccn3)CC2)cc(Cl)c2cccnc12` ?
1

`C[C@H](NC(=O)c1c(C(F)F)nn(C)c1Oc1cccc(C(F)(F)F)c1)c1ccc(C(=O)O)cc1` ?
1

`CN1CCN(c2nc3cc(C(F)(F)F)ccc3n3cccc23)CC1.O=C(O)/C=C\C(=O)O.O=C(O)/C=C\C(=O)O` ?
0

`CN(C)c1ccnc2sc3c(=O)n(N4CCCCCC4)cnc3c12` ?
1

CN1CCN2c3ncccc3Cc3ccccc3C2C1 (stereo not drawn) ?
1

`c1cc(OCCCN2CCCCC2)ccc1CN1CCCCC1` ?
1

`CCCn1c(=O)c2[nH]c(C3CCCC3)nc2n(CCC)c1=O` ?
1

`CCCC(CCC)C(=O)O` ?
1

`C[C@H]1[C@H]2CC[C@H]3[C@@H]4CC=C5C[C@@H](N(C)C)CC[C@]5(C)[C@H]4CC[C@]23CN1C` ?
1

`O=C1COc2nccc(-c3ccccc3F)c2CN1Cc1cc(C(F)(F)F)cc(C(F)(F)F)c1` ?
1

`CCOc1c2c(c(OCC)c3ncccc13)CN(c1ccc(CS(=O)(=O)NC(=O)Cc3ccccc3OC)cc1C)C2=O` ?
1
